Just for reference, the supplement of paper PMC10646978 is where these values come from.

NF-kB reporter reference
# Test system: RAW-Dual (murine macrophage reporter line)
# assay-summary: NF-kB reporter (SEAP) activity fold change vs agonist alone; higher = enhanced NF-kB activity
# experimental-parameters: modulator concentration 10 µM; agonist: MPLA […]
Enter the number alone.

The examples below pair each entry with its known result.
O=C1c2ccccc2C(=O)c2c1ccc(O)c2O : 1.02
CCCCc1c(C)nc(NN=C(C)c2cccc([N+](=O)[O-])c2)nc1O : 1.11
Cc1cc(C)c(NC(=O)c2ccc(Oc3nccs3)cc2)c(C)c1 : 1.22
Cn1ncc(Cl)c1-c1cc(C(=O)N[C@H](CN)Cc2ccc(F)c(F)c2)oc1Cl : 1.48
N[C@@H]1CONC1=O : 0.959

Query NF-kB reporter for Cc1nnsc1C(=O)Nc1ccccc1C(F)(F)F
1

Query NF-kB reporter for Cc1ccccc1Oc1ccc(S(=O)(=O)N2CCCC2)cc1
0.922

Query NF-kB reporter for COc1ccc(-c2cc(C(F)(F)F)n3nc(C(=O)Nc4cc(OC)c(OC)c(OC)c4)c(Cl)c3n2)cc1OC
0.795

Query NF-kB reporter for O=C(CCC1CCCC1)Nc1cccc(Cl)c1
1.15

Query NF-kB reporter for COC(=O)C1=CN(CC2CCCO2)C=C(C(=O)OC)C1c1ccccc1Cl (stereo not drawn)
2.32

Query NF-kB reporter for COCCOC(=O)C1=C(C)NC(=O)NC1c1cc(OC)c(OC)c(OC)c1 (stereo not drawn)
0.913
